Origin of measurements: patent US11254668B2

- ASSAYED SYSTEM: JAK1 (Homo sapiens (Human))
- Sequence (P23458 875-1153): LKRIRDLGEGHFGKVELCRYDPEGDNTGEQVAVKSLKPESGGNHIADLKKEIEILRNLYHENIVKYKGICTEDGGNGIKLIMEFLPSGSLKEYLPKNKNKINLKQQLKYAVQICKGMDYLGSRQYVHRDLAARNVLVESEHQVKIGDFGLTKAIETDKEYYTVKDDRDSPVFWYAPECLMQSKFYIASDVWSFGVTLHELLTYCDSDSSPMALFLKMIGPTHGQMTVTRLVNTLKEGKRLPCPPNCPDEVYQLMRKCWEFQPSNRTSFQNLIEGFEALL
- PROTOCOL DETAILS: JAK Caliper Enzyme Assay at 1 mM ATP, JAK1
- Type: biochemical
RESULT TYPE: IC50 (µM)

COMPOUND	OUTPUT UNIT	IC50
CS(=O)(=O)N1CC(CC#N)(n2ccc(-c3nc(-c4cnn(C(F)(F)F)c4)cc4ncccc34)n2)C1	µM	9.06
N#CCC1(n2ccc(-c3nc(-c4ccc(=O)[nH]c4)cc4ncccc34)n2)CN(S(=O)(=O)C2CC2)C1	µM	0.554
N#CCC1(n2ccc(-c3nc(-c4cc[nH]n4)cc4ncccc34)n2)CN(CC(F)(F)F)C1	µM	0.475
CS(=O)(=O)N1CC(CC#N)(n2ccc(-c3nc(-c4cccnc4N)cc4ncccc34)n2)C1	µM	5.05

a = Cn1nccc1C1CC(CC#N)(n2ccc(-c3nc(-c4cn[nH]c4)cc4ncccc34)n2)C1 (centres unmarked)
b = Cn1cc(-c2cc3ncccc3c(-c3cn(C4(CC#N)CN(CC(F)(F)F)C4)nn3)n2)cn1
c = CO[C@H]1C[C@](CC#N)(n2ccc(-c3nc(-c4cnn(CCO)c4)cc4ncccc34)n2)C1
d = Cc1n[nH]cc1-c1cc2ncccc2c(-c2ccn([C@]3(CC#N)C[C@H](C#N)C3)n2)n1
Hey, can you sort those compounds up there by IC50, smallest first? Reply format: the labels, ordered as requested.
b, d, a, c
(b: 0.182 µM, d: 0.269 µM, a: 2.41 µM, c: 5.92 µM)

a = N#CC[C@]1(n2ncc(-c3cc(-c4cnc(CO)s4)cc4ncccc34)n2)C[C@H](C#N)C1
b = Cn1ccc(-c2cc(-c3cnn([C@]4(CC#N)C[C@H](C#N)C4)n3)c3cccnc3c2)n1
Pick one: a or b . Which one has the lower reported IC50? When you have decided, please share the label of that item.
b
(b: 0.486 µM, a: 2.58 µM)

A = CS(=O)(=O)N1CC(CC#N)(n2ccc(-c3nc(-c4ccc(S(N)(=O)=O)nc4)cc4ncccc34)n2)C1
B = CO[C@H]1C[C@](CC#N)(n2cc(-c3nc(-c4cc(CO)n[nH]4)cc4ncccc34)cn2)C1
C = CS(=O)(=O)Nc1ccc(-c2cc3ncccc3c(-c3ccn(C4(CC#N)CN(S(C)(=O)=O)C4)n3)n2)cn1
D = Cc1cc(-c2cc3ncccc3c(-c3ccn(C4(CC#N)CN(S(C)(=O)=O)C4)n3)n2)ccn1
E = CC(C)(O)[C@H]1C[C@@](CC#N)(n2ccc(-c3nc(-c4cn[nH]c4)cc4ncccc34)n2)C1
Hey, can you sort those compounds up there by IC50, smallest first? Reply format: the labels, ordered as requested.
C, B, D, A, E
(C: 0.12 µM, B: 0.266 µM, D: 0.785 µM, A: 1.94 µM, E: 3.58 µM)

P = Cn1ncc(-c2cc3ncccc3c(-c3ccn(C4(CC#N)CC(C#N)C4)n3)n2)c1N (centres unmarked)
Q = CC(=O)N(C)[C@H]1C[C@](CC#N)(n2ccc(-c3nc(-c4cc[nH]n4)cc4ncccc34)n2)C1
R = N#CCC1(n2ccc(-c3nc(-c4cnn(C5CCNCC5)c4)cc4ncccc34)n2)CN(CC(F)(F)F)C1
S = Cn1cc(-c2cc3ncccc3c(-c3cc(C4(CC#N)CN(CC#N)C4)no3)n2)cn1
T = CC(=O)NC1CC(CC#N)(n2ccc(-c3nc(-c4cc[nH]n4)cc4ncccc34)n2)C1 (centres unmarked)
Put the entries in order of IC50, starting with the largest number. Reply format: the labels, ordered as requested.
T, Q, R, P, S

====

- ASSAYED SYSTEM: JAK3 (Homo sapiens (Human), UniProt P52333)
- Sequence (P52333 822-1111): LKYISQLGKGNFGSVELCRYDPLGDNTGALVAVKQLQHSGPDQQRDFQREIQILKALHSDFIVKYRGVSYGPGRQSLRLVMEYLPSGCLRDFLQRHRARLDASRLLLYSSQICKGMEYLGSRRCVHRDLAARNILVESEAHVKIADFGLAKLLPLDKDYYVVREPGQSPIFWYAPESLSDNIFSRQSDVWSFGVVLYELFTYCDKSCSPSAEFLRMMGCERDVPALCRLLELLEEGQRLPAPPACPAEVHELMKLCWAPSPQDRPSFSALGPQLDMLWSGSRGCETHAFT
- PROTOCOL DETAILS: JAK Caliper Enzyme Assay at 1 mM ATP, JAK3
- Format: biochemical
pIC50: −log10 of the molar value.
# maps each entry to its pIC50

Report pIC50 for CS(=O)(=O)N1CC(CC#N)(n2ccc(-c3nc(-c4ccc(O)cc4)cc4ncccc34)n2)C1 please.
< 5.00

Another: CS(=O)(=O)N1CC(CC#N)(n2ccc(-c3nc(-c4cnn(CCO)c4)cc4ncccc34)n2)C1
< 5.00

Another: N#CC[C@]1(n2ccc(-c3nc(-c4cc(N)cnn4)cc4ncccc34)n2)C[C@@H](C#N)C1
< 5.00

====

- ASSAYED SYSTEM: TYK2 (Homo sapiens (Human), UniProt P29597)
- Sequence (P29597 897-1176): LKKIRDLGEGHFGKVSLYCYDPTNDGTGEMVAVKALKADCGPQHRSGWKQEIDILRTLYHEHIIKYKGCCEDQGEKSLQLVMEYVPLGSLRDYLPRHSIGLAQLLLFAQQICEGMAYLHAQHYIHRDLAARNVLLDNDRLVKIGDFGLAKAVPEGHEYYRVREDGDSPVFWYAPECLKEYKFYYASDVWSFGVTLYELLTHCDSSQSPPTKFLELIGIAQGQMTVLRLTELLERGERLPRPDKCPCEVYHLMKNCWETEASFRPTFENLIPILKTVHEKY
- PROTOCOL DETAILS: JAK Caliper Enzyme Assay at 1 mM ATP, TYK2
- Assay type: biochemical
RESULT TYPE: IC50 (µM)

Here's what some known entries look like.
COMPOUND	RESULT TYPE	ASSAY RESULT
CS(=O)(=O)N1CC(CC#N)(n2ccc(-c3nc(-c4cnc(N)c(N)c4)cc4ncccc34)n2)C1	IC50	0.081
CO[C@H]1C[C@@](CC#N)(n2cc(-c3nc(-c4cc(CO)n[nH]4)cc4ncccc34)cn2)C1	IC50	0.063
CS(=O)(=O)N1CC(CC#N)(n2ccc(-c3nc(-c4c[nH]c5nccc-5c4)cc4ncccc34)n2)C1	IC50	0.148
Cc1ncc(-c2cc3ncccc3c(-c3ccn(C4(CC#N)CN(CC(F)(F)F)C4)n3)n2)n1C	IC50	4.14
Cc1cc(-c2cc3ncccc3c(-c3ccn(C4(CC#N)CN(CC(F)(F)F)C4)n3)n2)n[nH]1	IC50	0.036

1 = CS(=O)(=O)N1CC(CC#N)(n2ncc(-c3cc(-c4cccnc4N)cc4ncccc34)n2)C1
2 = Cc1cc(-c2nc(-c3cn[nH]c3N)cc3ncccc23)nn1[C@]1(CC#N)C[C@@H](C#N)C1
Pick one: 1 or 2 . Which one has the lower reported IC50? When you have decided, please share the label of that item.
2
(2: 0.013 µM, 1: 3.63 µM)

A = N#CCC1(n2ncc(-c3cc(-c4scnc4CO)cc4ncccc34)n2)CC(C#N)C1 (stereo not drawn)
B = CCOC(=O)Nc1cncc(-c2cc3ncccc3c(-c3ccn(C4(CC#N)CN(S(C)(=O)=O)C4)n3)n2)c1
C = CS(=O)(=O)N1CC(CC#N)(n2ccc(-c3nc(-c4cnn(CC5(O)COC5)c4)cc4ncccc34)n2)C1
Put the entries in order of IC50, starting with the largest number. Reply format: the labels, ordered as requested.
A, B, C

====

- ASSAYED SYSTEM: JAK2 (Homo sapiens (Human))
- Sequence (O60674 849-1124): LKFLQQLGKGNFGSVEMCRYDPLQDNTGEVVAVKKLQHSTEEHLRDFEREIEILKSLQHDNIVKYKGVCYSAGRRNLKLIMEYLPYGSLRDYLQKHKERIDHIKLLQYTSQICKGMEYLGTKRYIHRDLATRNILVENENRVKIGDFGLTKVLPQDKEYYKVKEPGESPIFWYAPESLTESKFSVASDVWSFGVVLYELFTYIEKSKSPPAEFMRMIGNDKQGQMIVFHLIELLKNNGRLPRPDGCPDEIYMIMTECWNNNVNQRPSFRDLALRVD
- PROTOCOL DETAILS: JAK Caliper Enzyme Assay at 1 mM ATP, JAK2
- Assay type: biochemical
RESULT TYPE: IC50 (nM)

COMPOUND	ASSAYED SYSTEM	ASSAY RESULT
Cc1cc(-c2cc3ncccc3c(-c3ccn([C@]4(CC#N)C[C@H](C#N)C4)n3)n2)nn1C	JAK2 (Homo sapiens (Human))	92

P = CO[C@H]1C[C@@](CC#N)(n2ncc(-c3cc(-c4cc[nH]n4)cc4ncccc34)n2)C1
Q = N#CC[C@]1(n2ccc(-c3nc(-c4cc(CO)[nH]n4)cc4ncccc34)n2)C[C@@H](C#N)C1
Between P and Q , which one shows the larger IC50 value? When you have decided, please share the label of that item.
P
(P: 788 nM, Q: 16 nM)

1 = Cc1cc(-c2nc(-c3cc[nH]n3)cc3ncccc23)nn1[C@]1(CC#N)C[C@@H](C#N)C1
2 = N#CCC1(n2ccc(-c3nc(Oc4cccc(N)n4)cc4ncccc34)n2)CC(C#N)C1 (stereo not shown)
Between 1 and 2 , which one shows the larger IC50 value? When you have decided, please share the label of that item.
2

a = CS(=O)(=O)N1CC(CC#N)(n2cc(-c3cc(-c4cc[nH]n4)cc4ncccc34)cn2)C1
b = N#CCC1(n2ccc(-c3nc(-c4ccn[nH]4)cc4ncccc34)n2)CC(CO)C1 (stereo not shown) [Example 29]
Between a and b , which one shows the larger IC50 value? When you have decided, please share the label of that item.
b

====

- ASSAYED SYSTEM: UniProt P52333
- PROTOCOL DETAILS: JAK Caliper Enzyme Assay at 1 mM ATP, JAK3
- Assay type: biochemical
RESULT TYPE: IC50 (µM)

1 = N#CC[C@]1(n2ncc(-c3cc(-c4cccc(N)n4)cc4ncccc34)n2)C[C@@H](C#N)C1
2 = N#CCC1(n2ccc(-c3nc(-c4ccn[nH]4)cc4ncccc34)n2)CN(S(=O)(=O)C2COC2)C1
Between 1 and 2 , which one shows the larger IC50 value? When you have decided, please share the label of that item.
2

====

- ASSAYED SYSTEM: TYK2 (Homo sapiens (Human), UniProt P29597)
- PROTOCOL DETAILS: JAK Caliper Enzyme Assay at 1 mM ATP, TYK2
- Format: biochemical
pIC50: −log10 of the molar value.
RESULT TYPE: pIC50

SMILES NOTATION	ASSAYED SYSTEM	RESULT TYPE	ASSAY RESULT
CS(=O)(=O)N1CC(CC#N)(n2ccc(-c3nc(-c4ccc5nccn5c4)cc4ncccc34)n2)C1	TYK2 (Homo sapiens (Human), UniProt P29597)	pIC50	7.17
Cn1cc(-c2cc(-c3cnn(C4(CC#N)CN(S(C)(=O)=O)C4)n3)c3cccnc3c2)cn1	TYK2 (Homo sapiens (Human), UniProt P29597)	pIC50	7.16
CCN1CC(CC#N)(n2ccc(-c3nc(-c4c[nH]nc4N)cc4ncccc34)n2)C1	TYK2 (Homo sapiens (Human), UniProt P29597)	pIC50	7.03
